Where do the numbers come from? From the supplement of paper PMC11451515.

# System: P12-Ichikawa
# assay_procedure: cell viability relative to DMSO control; higher = less cytotoxic
# applied_conditions: HPLM + 10% dialyzed FBS; 48 h; 15.4 µM
recorded_endpoint: cell viability (%)
Give bare numbers, in %.

Guide cases for cell viability, answers given:
CC(C)NC[C@@H](C(=O)N1CCN(c2ncnc3c2[C@H](C)C[C@H]3O)CC1)c1ccc(Cl)cc1 : 48.2
C=CC(=O)N1CCC[C@@H](n2nc(-c3ccc(Oc4ccccc4)cc3)c3c(N)ncnc32)C1 : 76.3
CNC(=O)c1ccc(N2C(=S)N(c3ccc(C#N)c(C(F)(F)F)c3)C(=O)C23CCC3)cc1F : 107

Hey, quick one: what's cell viability for each of these?
1. Nc1nc(N)c2nc(CNc3ccc(C(=O)NC(CCC(=O)O)C(=O)O)cc3)cnc2n1 (stereo not given)
2. C[C@@H]1[C@H](O)[C@@H](C)/C=C/C=C/C=C/C=C/C=C/C=C/C=C/[C@H](O[C@@H]2O[C@H](C)[C@@H](O)[C@H](N)[C@@H]2O)C[C@@H]2O[C@](O)(C[C@@H](O)C[C@@H](O)[C@H](O)CC[C@@H](O)C[C@@H](O)CC(=O)O[C@H]1C)C[C@H](O)[C@H]2C(=O)O
3. COc1ccc(C2CNC(=O)C2)cc1OC1CCCC1 (stereo not given)
4. CN[C@@H]1[C@H](O)[C@H](NC)[C@H]2O[C@@]3(O)C(=O)C[C@@H](C)O[C@H]3O[C@@H]2[C@H]1O
5. O=C(c1ccc(Nc2nccc(-c3cc4ccccc4s3)n2)cc1)N1CCC(N2CCCC2)CC1
6. COc1cc2ncnc(Nc3cc(Br)c(O)c(Br)c3)c2cc1OC
7. CCOC(=O)\C1=C(/C)N\C2=C(C1C3=CC=C(C=C3)C4=CC=CC=C4)\C(=O)CC(C)(C)C2 (stereo not given)

A)
[39.6, 127, 99, 101, 67.7, 108, 108]
